Could you please report measured % of fluorescence positive cells for the items listed next?
assayed-system: T1, recombinant hIL-18Rα extracellular domain (human, UniProt Q13478 22-329, biotin label (selection) or fluorescent probe (single-clone FACS), sites not given)
T1 construct: extracellular domain; also called hIL-18Rα ECD; hIL-18Rα-ECD
T1 sequence (looked up): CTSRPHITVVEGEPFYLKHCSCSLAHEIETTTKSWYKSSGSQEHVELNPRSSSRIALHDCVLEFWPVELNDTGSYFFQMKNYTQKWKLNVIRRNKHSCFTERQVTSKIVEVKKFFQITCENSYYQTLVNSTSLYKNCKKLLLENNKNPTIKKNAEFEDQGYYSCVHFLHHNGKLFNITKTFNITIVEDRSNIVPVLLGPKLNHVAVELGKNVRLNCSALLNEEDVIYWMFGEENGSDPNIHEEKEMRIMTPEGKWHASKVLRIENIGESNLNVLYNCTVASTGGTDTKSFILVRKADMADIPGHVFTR
experimental-protocol: single-clone FACS, yeast display, 10 nM labelled hIL-18Rα ECD
One number for each entry, in %.

Examples with answers:
- binder: "SEQ ID NO 13 (ligand) YFPKLRSKLSVIRNLNDQVLFIDQGNRPLFEDMTDSDCRDNAPRTIFIISMYKWSKTRGMAVTISVKCEKISTLSCENKIISFKEMNPPDVIKDTKSDIIFFQYSVPGHDNKMQFESSSYEGYFLACEKERDLFKLILKKEDELGDRSIMFTVQNED"
  measured-endpoint: "% of fluorescence positive cells"
  number: 93.2
- binder: "SEQ ID NO 71 (ligand) YFPKLYSKLSVIRNLNDQVLFIDQGNRPLFEDMTDSDCRDNAPRTIFIISMYKHSTNRGMAVTISVKCEKISTLSCENKIISFKEMNPPDGIKDTKSDIIFFQRSVPGHDNKMQFESSSYEGYFLACEKERDLFKLILKKEDELGDRSIMFTVQNED"
  measured-endpoint: "% of fluorescence positive cells"
  number: 45.1

Now turn to the next binder.
Noted for SEQ ID NO 92 (ligand) YFWKLSSKLSVIRNLNDQVLFIDQGNRPLFEDMTDSDCRDNAPRTIFIISMYKQSLRRGMAVTISVKCEKISTLSCENKIISFKEMNPPDRIKDTKSDIIFFQASVPGHDNKMQFESSSYEGYFLACEKERDLFKLILKKEDELGDRSIMFTVQNED : its % of fluorescence positive cells reads 4.48
